# Tested on: Klebsiella pneumoniae
# PROCEDURE_TEXT: Antibacterial activity against Klebsiella pneumoniae ATCC BAA 1705 assessed as inhibition of bacterial growth incubated for 24 hrs by CLSI based broth microdilution method
# Assay type: functional
# MEASUREMENT_CONDITIONS: read-out: MIC
MEASURED_ATTRIBUTE: MIC

Entry H-RWIRRWIRWWR-NH2 , MIC reported as 100 µg/mL

Sample H-AWWRRAWRR-NH2 ; MIC observed: > 100 µg/mL

Entry H-RWWRRAWRA-NH2 — recorded MIC = > 100 µg/mL

The substance H-RWWRAAWRR-NH2 showed MIC equal to > 100 µg/mL

MIC measured on H-RWWRRAWAR-NH2 = > 100 µg/mL

What the record says about H-RWWRRWAR-NH2 : MIC is > 100 µg/mL

Notebook: H-RAARRWARWWR-NH2 , MIC read as > 100 µg/mL

MIC in this record for Ac-RWARRWARWWRR-NH2 : > 100 µg/mL

Memo: H-RWIRRWIRWWRR-NH2 , reported MIC: 12.5 µg/mL
